These data points were gathered from PubChem BioAssay (NCATS).

- System: Tov112D
- method summary: Primary qHTS to identify gynecologic anti-cancer compounds using libraries of approved drugs and bioactive compounds (AID 1345084); also: nearly all actives have a fitted effect of over 55% in size
- experimental context: Gynecologic cancer cell panel viability, ATPlite luminescence, 48 h; series mostly up to 57.5 µM
Inconclusive results are not listed. Activity calls are given as the source filed them. Calls follow the shape of the dose curve; as a rule, active = well fitted cell-killing curve with a large enough effect; inconclusive = small, poorly fitted or top-dose-only effect, or effect the other way; inactive = flat fitted curve, though single readings scatter.
// one of yes (active), no (inactive), no free text

# input # lookup: test call for CC(C)C(C(=O)N(C)C(C)C(N)=O)N(C)C(=O)C1CCCN1C(=O)/C=C/C=C/C(O)C(C)O (stereo not drawn)
# output no

# input # lookup: test call for C[C@@H]1CC[C@]2(C(=O)O[C@@H]3O[C@H](CO)[C@@H](O)[C@H](O)[C@H]3O)CC[C@]3(C)C(=CCC4[C@@]5(C)C[C@@H](O)[C@H](O)[C@](C)(C(=O)O)C5CC[C@]43C)[C@@H]2[C@]1(C)O (stereo partly drawn)
# output no

# input # lookup: test call for O=[N+]([O-])c1cccc2[nH]c(CNc3nc(N4CCOCC4)nc4c3ncn4-c3ccsc3)nc12
# output yes

# input # lookup: test call for O=C(O)c1ccc(OC2OC(CO)C(O)C(O)C2O)cc1 (stereo not drawn)
# output no

# input # lookup: test call for COC(=O)C1=CO[C@@H](O[C@@H]2O[C@H](CO)[C@@H](O)[C@H](O)[C@H]2O)[C@@H]2C(COC(C)=O)=C[C@H](O)[C@H]12
# output no

# input # lookup: test call for CC(C)CC(=O)O[C@@H]1OC=C(CO[C@@H]2O[C@H](CO)[C@@H](O)[C@H](O)[C@H]2O)[C@H]2[C@@H]3O[C@H]3[C@@](O)(CO)[C@@H]12
# output no

# input # lookup: test call for COc1ccc(CNC(=O)c2sc3nc(C)cc(C)c3c2N)cc1
# output no

# input # lookup: test call for COc1ccc(-c2cnc3ccc(NCc4ccc(S(N)(=O)=O)cc4)nn23)cc1OC
# output no

====

- method summary: Primary redox qHTS assay for identification of artifact compounds. (AID 1845223);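 also: 0% = DMSO and 100% = reference compound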
- experimental context: Amplex Red/HRP redox cycling with DTT, fluorescence; series mostly up to 53.8 µM
- Text: PI: Alexander Tropsha Ph.D. UNC Eshelman School of Pharmacy University of North Carolina, Chapel Hill, North Carolina Hits from high-throughput screening (HTS) of chemical libraries are often false positives due to their interference with the assay detection technology. […] Using these curated datasets, we developed and validated several Quantitative Structure-Interference Relationship (QSIR) models to predict nuisance behavior. […]
Records with an inconclusive call do not appear. The source made the active and inactive calls. The call rests on the fitted dose curve; in most records, active means well fitted activation curve with a large enough effect; inconclusive means small, poorly fitted or top-dose-only effect; inactive means flat fitted curve, though single readings scatter.
property name: redox activity (% of DA3003)

[[record]]
compound = "C=C1CCC[C@]2(C)CC[C@@H](C(=C)C(=O)O)[C@H](O)[C@@H]12"
endpoint_result = "inactive"

[[record]]
compound = "CC1CC(O)C2(OC1=O)OC1C(O)C3C4CCC5CC(OC6OC(CO)C(O)C(O)C6OC6OC(C)C(O)C(O)C6O)CCC5(C)C4CCC3(C)C1C2C (stereo not drawn)"
endpoint_result = "inactive"

[[record]]
compound = "CC(C)(C)C(=O)CN1C(=O)[C@H](NC(=O)Nc2cccc(C(=O)O)c2)CN(C2CCCCC2)c2ccccc21"
endpoint_result = "inactive"

[[record]]
compound = "COC(=O)C1=CO[C@@H](O)C2C(CO)=CCC12 (stereo partly drawn)"
endpoint_result = "inactive"

[[record]]
compound = "CC1(C)CCCC2(C)C=C(C(=O)O)C(O)CC12 (stereo not drawn)"
endpoint_result = "inactive"

[[record]]
compound = "Cc1ccc(NC(=O)C(=O)NC2CC(C)(C)NC(C)(C)C2)cc1"
endpoint_result = "inactive"

[[record]]
compound = "O=C1CCC(c2ccccc2)(C2CCN(Cc3ccc(I)cc3)CC2)C(=O)N1 (stereo not drawn)"
endpoint_result = "inactive"

[[record]]
compound = "CC(=O)O[C@@H]1[C@H](O[C@@H]2O[C@@H](CO)[C@H](O)[C@H]2O)[C@@H](O[C@@H]2O[C@@H](C)[C@H](O[C@@H]3OC[C@@H](O)[C@H](O)[C@H]3O)[C@@H](O)[C@H]2O)[C@H](OC(=O)[C@]23CCC(C)(C)C[C@H]2C2=CCC4[C@@]5(C)CC[C@H](O[C@@H]6O[C@H](C(=O)O)[C@@H](O)[C@H](O)[C@H]6O[C@@H]6O[C@H](CO)[C@H](O)[C@H](O)[C@H]6O)[C@@](C)(C=O)C5CC[C@@]4(C)[C@]2(C)CC3)O[C@@H]1C (stereo partly drawn)"
endpoint_result = "1.35% [at 11.5 µM] (inactive)"


# input GET /values?readout=redox activity (% of DA3003)&item= CCCOC(c1cc2nccc(C(=O)O)c2[nH]1)c1ccccc1Cl (stereo not drawn)
# output inactive

# input GET /values?readout=redox activity (% of DA3003)&item= NC(=O)Nc1cc(-c2cccc(F)c2)sc1C(=O)NC1CCCNC1 (stereo not drawn)
# output inactive

====

- target entity: Cytochrome P450 2C9 (Homo sapiens)
- method summary: Cytochrome P450 family 2 subfamily C member 9 (CYP2C9) small molecule antagonists: luciferase biochemical (cell-free) qHTS assay (AID 1645842); also: potency is read from the fitted curve at half-maximal effect; nearly all actives have a fitted effect of over 55% in size
- experimental context: P450-Glo CYP2C9 enzyme assay, luciferin luminescence; series mostly up to 57.4 µM
Inconclusive results are not listed. The source made the active and inactive calls. Calls follow the shape of the dose curve; as a rule, active = well fitted inhibition curve with a large enough effect in the repeat runs; inconclusive = weak or mixed curves; inactive = no such curve, though single readings can be large or run the other way.
property name: Potency

# input GET /values?readout=Potency&item= Cc1cc(C)nc(NS(=O)(=O)c2ccc(NC(=S)NC(=O)COc3ccc(Br)cc3Cl)cc2)n1
# output 10.7 µM (active)

# input GET /values?readout=Potency&item= c1cn2cc(-c3ccc4cn[nH]c4c3)nc(Nc3ccc(N4CCOCC4)cc3)c2n1
# output 0.601 µM (active)

# input GET /values?readout=Potency&item= Cc1ccccc1-n1c([C@H](C)Nc2nc(N)nc3nc[nH]c23)nc2cccc(C)c2c1=O
# output 1.34 µM (active)

# input GET /values?readout=Potency&item= CC(C)[C@@](C)(O)[C@@H]1CN(c2nc(-c3[nH]nc4ncccc34)c(F)cc2Cl)CCN1
# output 12 µM (active)

====

- Test system: Es-2
- method summary: Primary qHTS to identify gynecologic anti-cancer compounds using libraries of approved drugs and bioactive compounds (AID 1345084); also: nearly all actives have a fitted effect of over 55% in size
- experimental context: Gynecologic cancer cell panel viability, ATPlite luminescence, 48 h; series mostly up to 57.5 µM
Inconclusive results are not listed. Calls of active or inactive are those of the source. Calls come from the whole dose curve; as a rule, active = well fitted cell-killing curve with a large enough effect; inconclusive = small, poorly fitted or top-dose-only effect, or effect the other way; inactive = flat fitted curve, though single readings scatter.
// one of t (active), f (inactive), no free text

# input # lookup: test call for C=C(F)c1sc(CNCCCNc2cc(=O)c3ccccc3[nH]2)c(C)c1Br
# output f

# input # lookup: test call for CC(=O)N1CCc2ccc(O)c(OC3OC(COC4OCC(O)(CO)C4O)C(O)C(O)C3O)c2C1Cc1ccc(O)cc1 (stereo unspecified)
# output f

# input # lookup: test call for CC1CCN(C(=O)CC#N)CC1N(C)c1ncnc2[nH]ccc12 (stereo unspecified)
# output f

# input # lookup: test call for Cc1ccc([N+](=O)[O-])cc1S(=O)(=O)N(C)/N=C/c1cnc2ccc(Br)cn12
# output t

# input # lookup: test call for OC[C@H]1O[C@@H](OCCc2ccc(O)cc2)[C@H](O[C@@H]2OC[C@](O)(CO)[C@H]2O)[C@@H](O)[C@@H]1O
# output f

# input # lookup: test call for O=C1NC(Cc2c[nH]c3ccccc23)C(=O)NC1Cc1cnc[nH]1 (stereo unspecified)
# output f

# input # lookup: test call for N#C[C@@H]1C[C@H](F)CN1C(=O)CNC1[C@H]2CN(C(=O)c3ccc(F)cc3)C[C@@H]12 (stereo partly specified)
# output f

# input # lookup: test call for CC1(C)CC[C@]2(C(=O)O)CC[C@]3(C)C(=CCC4[C@@]5(C)C[C@@H](O)[C@H](O)C(C)(C)C5CC[C@]43C)C2C1 (stereo partly specified)
# output f

# input # lookup: test call for COC(=O)C1=COC(OC2OC(CO)C(O)C(O)C2O)C2C1C=CC2(O)CO (stereo unspecified)
# output f

# input # lookup: test call for CCC(=O)O[C@H]1C(C)(C)[C@H]([C@@H](O)C(=O)OC)[C@]2(C)C(=O)[C@@]1(O)[C@H]1O[C@]13C1CC(=O)O[C@@H](c4ccoc4)[C@]1(C)CCC32 (stereo partly specified)
# output f

# input # lookup: test call for COC(=O)C1=CO[C@@H](O[C@@H]2O[C@H](CO)[C@@H](O)[C@H](O)[C@H]2O)C2C1C(=O)C[C@H]2C (stereo partly specified)
# output f

# input # lookup: test call for Cc1noc(=O)c2ccc(NC(=O)C(O)(CC(C)(C)c3cccc4c3OCC4)C(F)(F)F)cc12 (stereo unspecified)
# output f

# input # lookup: test call for CC1=C(C(=O)O)/C(=C\CO[C@@H]2O[C@H](CO)[C@@H](O)[C@H](O)[C@H]2O)C(OC(=O)/C=C/c2ccc(O)cc2)C1 (stereo partly specified)
# output f

# input # lookup: test call for COc1cc(Br)c(Nc2nc(-c3c(C)nc4ncccn34)cs2)c(Br)c1
# output t

# input # lookup: test call for CC(C)C(C#N)O[C@@H]1O[C@H](CO[C@@H]2O[C@@H](C)[C@H](O)[C@@H](O)[C@H]2O)[C@@H](O)[C@H](O)[C@H]1O (stereo partly specified)
# output f

# input # lookup: test call for CC(C)=C/C=C\[C@H](C)[C@H]1CC[C@]2(C)C[C@@H]3C(C)=CC(=O)C3/C(CO)=C\C[C@@H]12 (stereo partly specified)
# output f
